Value source: ChEMBL document CHEMBL4837217

- assay: Cytotoxicity against mouse J774 cells assessed as reduction in cell viability incubated for 72 hrs by MTT assay
- Type: cell-based
measured_metric: CC50 at 72 h

Q) # CC50 at 72 h lookup, item `N#Cc1c(N2CCN(c3ccccc3O)CC2)cc(-c2cccs2)oc1=O`
A) 311 µM

Q) # CC50 at 72 h lookup, item `N#Cc1c(N2CCN(c3ccccc3O)CC2)cc(-c2ccccc2)oc1=O`
A) 351 µM

====

Would you mind telling me the reported inhibition at 50 µM of each entry?
- Test system: Leishmania donovani
- assay: Antileishmanial activity against amastigote stage of Leishmania donovani MHOM/IN/80/Dd8 harboring luciferase gene infected in mouse J774 cells assessed as parasite growth inhibition at 50 uM incubated for 72 hrs by Steady-Glo reagent based luciferase assay
- Type: functional
- condition_notes: MHOM/IN/80/Dd8, J774
Answer format: numeric, % implied, no suffix.

Q) # inhibition at 50 µM lookup, item `N#Cc1c(N2CCN(c3ccccc3O)CC2)cc(-c2ccc(Br)s2)oc1=O`
A) 85.1

Q) # inhibition at 50 µM lookup, item `N#Cc1c(N2CCN(c3ccccc3O)CC2)cc(-c2cccs2)c2c1CCSC2`
A) 72.6

Q) # inhibition at 50 µM lookup, item `N#Cc1c(N2CCN(c3ccccc3Cl)CC2)cc(-c2ccc(Cl)cc2)oc1=O`
A) 71

Q) # inhibition at 50 µM lookup, item `N#Cc1c2c(c3c(c1N1CCN(c4ccccc4O)CC1)Cc1ccccc1-3)CSC2`
A) 57.3

Q) # inhibition at 50 µM lookup, item `N#Cc1c(N2CCN(c3ccccc3O)CC2)cc(-c2cccc3ccccc23)oc1=O`
A) 80.8

Q) # inhibition at 50 µM lookup, item `N#Cc1c(N2CCN(c3ccccc3O)CC2)cc(-c2cccs2)c2c1CSC2`
A) 79.3

Q) # inhibition at 50 µM lookup, item `N#Cc1c(N2CCN(c3ccccc3O)CC2)cc(-c2ccc(Br)cc2)oc1=O`
A) 35.1
